The reported numbers originate from paper PMC11089504.

target: A. castellanii CYP51 (Acanthamoeba castellanii, UniProt L8GJB3, V2A); assay: A. castellanii CYP51 inhibition assay, reconstituted 1 h enzyme reaction; settings: 1 h IC50, 1 h reaction, 0.5 μM P450, 50 μM obtusifoliol
measured_quantity: pIC50
To interpret pIC50, take it as minus log10 of a concentration measured in moles per litre.

Data request: Item under review: OC(Cn1cncn1)(Cn1cncn1)c1ccc(F)cc1F [fluconazole] . Reported pIC50?
Data returned: 4.15
